The origin of these recorded values is paper PMC9030827.

System: HFF-1 cells
Assay: Neutral red (NR) cell viability assay
Assay type: cell-based
Conditions: Homo sapiens, HFF-1, 72 h, read-out: EC50 (decrease of viability), NR assay
Protocol: Experiments were performed using the following cell lines: Ishikawa, Hec50co, COV434, and HFF-1. The Ishikawa cell line (RRID: CVCL_2529) was established from an endometrial adenocarcinoma. […] The Ishikawa, Hec50co, COV434, and HFF-1 cell lines were plated at a density of 5 × 10^4 cells/well in transparent 96-well plates. […] After the 3 h, purple MTT formazan crystals were dissolved by agitation for 15 min in a solution of DMSO/isopropanol (ratio 3:1) and quantified spectrophotometrically at 540 nm. […]
QUANTITY KIND: EC50 (µM)
# unit: µM | format: bare number

Q: Form field: reported EC50 of O=C(/C=C/c1ccc(O)c(O)c1)NCCCCCCCCCC[P+](c1ccccc1)(c1ccccc1)c1ccccc1
A: 45.1

====

system: HFF-1 cells; test: Neutral red (NR) cell viability assay; assay type: cell-based; settings: Homo sapiens, HFF-1, 48 h, read-out: EC50 (decrease of viability), NR Assay
QUANTITY KIND: EC50 (µM)
The response must be a number in µM with no trailing unit.

Q: Data request, read-out EC50, for O=C(/C=C/c1ccc(O)c(O)c1)NCCCCCCCCCC[P+](c1ccccc1)(c1ccccc1)c1ccccc1
A: 57

====

system: Ishikawa cells; test: Neutral red (NR) cell viability assay; type: cell-based; settings: Homo sapiens, 48 h, read-out: EC50 (decrease of viability), NR Assay
QUANTITY KIND: EC50

Q: So what does the record say about EC50 for O=C(/C=C/c1ccc(O)c(O)c1)NCCCCCCCCCC[P+](c1ccccc1)(c1ccccc1)c1ccccc1 ?
A: 15.7 µM

====

Measured EC50 by item
test system: Hec50co cells; assay: MTT cell viability assay; type: cell-based; conditions: Homo sapiens; Hec50co, 24 hours of incubation; read-out: EC50 (decrease of viability), MTT assay
Kindly answer with a numeric value in µM, unit omitted.

COMPOUND	EC50 [µM]
O=C(/C=C/c1ccc(O)c(O)c1)NCCCCCCCCCC[n+]1ccc2ccccc2c1 [Mito6_isoq.]	19

In the following, a different compound is considered.
Q: Identify the measured EC50 of Cc1cc[n+](CCCCCCCCCCNC(=O)/C=C/c2ccc(O)c(O)c2)cc1 [Mito6_picol.] for Hec50co cells.
A: 27.3

====

test system: COV434 cells; assay: Neutral red (NR) cell viability assay; assay type: cell-based; settings: Homo sapiens; COV434, 24 hours of incubation; read-out: EC50 (decrease of viability), NR assay
QUANTITY KIND: EC50
Value and unit, in that order.

SMI	REPORTED VALUE
Cc1cc[n+](CCCCCCCCCCNC(=O)/C=C/c2ccc(O)c(O)c2)cc1	87.8 µM
O=C(/C=C/c1ccc(O)c(O)c1)NCCCCCCCCCC[P+](c1ccccc1)(c1ccccc1)c1ccccc1	13.6 µM

Next, consider the following compound.
Q: Please report the recorded EC50 for O=C(/C=C/c1ccc(O)c(O)c1)NCCCCCCCCCC[n+]1ccc2ccccc2c1 .
A: 51.6 µM

====

system: Hec50co cells; test: MTT cell viability assay; assay type: cell-based; details: Homo sapiens, 48 h, read-out: EC50 (decrease of viability), MTT Assay
QUANTITY KIND: EC50 (µM)
Use µM as the unit, but write only the number.

Q: Recorded EC50 for O=C(/C=C/c1ccc(O)c(O)c1)NCCCCCCCCCC[P+](c1ccccc1)(c1ccccc1)c1ccccc1 [Mito6_TPP] , please?
A: 1.87
